Assay system: T1, rhesus monkey CD22-ECD-His protein (rhesus monkey, UniProt H9G1X2 18-686)
T1 construct: extracellular domain; also called monkey CD22 protein
T1 sequence: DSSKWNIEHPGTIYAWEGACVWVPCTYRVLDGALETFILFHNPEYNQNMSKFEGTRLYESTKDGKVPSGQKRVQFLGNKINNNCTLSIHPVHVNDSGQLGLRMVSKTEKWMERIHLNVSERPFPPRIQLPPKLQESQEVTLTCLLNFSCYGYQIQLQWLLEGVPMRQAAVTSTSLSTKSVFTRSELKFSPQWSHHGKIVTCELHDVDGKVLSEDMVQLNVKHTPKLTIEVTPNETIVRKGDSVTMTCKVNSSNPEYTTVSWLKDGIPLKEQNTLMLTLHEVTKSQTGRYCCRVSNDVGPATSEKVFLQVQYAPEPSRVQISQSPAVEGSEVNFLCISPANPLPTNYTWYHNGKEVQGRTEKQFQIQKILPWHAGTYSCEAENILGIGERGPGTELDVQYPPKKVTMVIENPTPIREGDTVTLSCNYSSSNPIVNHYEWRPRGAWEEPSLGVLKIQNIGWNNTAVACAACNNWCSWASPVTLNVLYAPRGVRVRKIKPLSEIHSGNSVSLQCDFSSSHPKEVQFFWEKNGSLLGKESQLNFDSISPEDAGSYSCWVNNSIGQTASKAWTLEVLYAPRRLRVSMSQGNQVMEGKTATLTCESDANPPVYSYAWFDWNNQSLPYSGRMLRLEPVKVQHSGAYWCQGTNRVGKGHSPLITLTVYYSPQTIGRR
Run description: SPR (Biacore), antibody captured on Protein A chip, rhesus CD22 in solution
Property name: kon (M⁻¹ s⁻¹)
Reply with just the number (in M⁻¹ s⁻¹).

Binder	Unit abbrev	kon
F1.17.1 (antibody, human IgG1, kappa, V domains shown, Chimeric IgG1 kappa) VH: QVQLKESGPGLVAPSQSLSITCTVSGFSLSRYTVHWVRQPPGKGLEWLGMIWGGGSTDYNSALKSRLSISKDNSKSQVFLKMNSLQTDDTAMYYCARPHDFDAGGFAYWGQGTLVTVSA VL: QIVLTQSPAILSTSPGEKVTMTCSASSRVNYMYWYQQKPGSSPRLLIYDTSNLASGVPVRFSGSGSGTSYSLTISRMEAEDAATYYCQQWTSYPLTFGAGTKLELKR	M⁻¹ s⁻¹	144000

## Input Which kon value is on record for F1.120.15 (antibody, human IgG1, kappa, V domains shown, Chimeric IgG1 kappa) VH: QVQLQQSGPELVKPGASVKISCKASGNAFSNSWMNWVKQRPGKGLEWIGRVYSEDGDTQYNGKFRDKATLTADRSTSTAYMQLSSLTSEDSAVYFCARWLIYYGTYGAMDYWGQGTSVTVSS VL: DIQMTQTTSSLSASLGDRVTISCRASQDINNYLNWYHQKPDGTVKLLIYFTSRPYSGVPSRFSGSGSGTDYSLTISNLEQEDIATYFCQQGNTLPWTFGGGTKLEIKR ?
## Output 42100
